- experiment notes: folding enthalpy; higher = less favourable; fluorescence melt of hairpins on a sequencing array, two-state fit
- experimental conditions: sodium 0.088 M
quantity kind: folding enthalpy (kcal/mol)
The reply should be a number in kcal/mol, with the unit left off.

GGACGTCGAAAGACTCC (((.(((....)))))): -23.8
GGATATCGAAAGATGTCC (((.(((....))).))): -38.9
GCAACGTCGAAAGACTGC (((..(((....)))))): -20.1
GCTGCGCGAAAGCTCAGC ((((.((....)).)))): -35.4

Q: // returns reported folding enthalpy for input GATCAAATAGTTGATC ((((((....))))))
Ans: -29.5

Q: Which folding enthalpy is reported for this sequence? GATCGAAAGATCGATC ((((((....))))))
Ans: -19.9

Q: Report folding enthalpy for GCCTTCGAAAGAAATGGC ((((((....)))..))) please.
Ans: -24.6

###

- experiment notes: folding enthalpy; higher = less favourable; fluorescence melt of hairpins on a sequencing array, two-state fit
- experimental conditions: sodium 0.088 M
quantity kind: folding enthalpy

GATCCCACAAGGGATC ((((((....)))))): -30.6 kcal/mol
GCAGGGCGAAAGCCGGGC ((..(((....)))..)): -17.4 kcal/mol
GATTAGGGAAACCTAATC (((((((....))))))): -45.1 kcal/mol

Q: What does the data say about its folding enthalpy? Entry: GGCTAGGGAAACTTGGCC (((.(.(....).).)))
Ans: -25.9 kcal/mol

Q: Entry GGAGGGCGAAAGCCGTCC (((.(((....))).))) : reported folding enthalpy = ?
Ans: -21 kcal/mol

Q: Recorded folding enthalpy of GCGATCGGTCGC ((((....)))) , please.
Ans: -31.6 kcal/mol

Q: Record request: folding enthalpy value, item GCATCTTCGAAAGAATGC (((..(((....))))))
Ans: -23.2 kcal/mol

Q: Returns the measured folding enthalpy for the input sequence. Input: GACCAGCGAAAGCTTGTC (((.(((....))).)))
Ans: -24 kcal/mol

Q: So what's the measured folding enthalpy for this one? GGTTGCGAAAGCAGGACC ((((((....)))..)))
Ans: -19.2 kcal/mol

Q: May I ask what folding enthalpy has been recorded for GATCAGACCGCTGATC ((((((....)))))) ?
Ans: -28.5 kcal/mol

Q: Entry GATCGCACGAAAGTGATC (((..(((....)))))) : reported folding enthalpy = ?
Ans: -16.3 kcal/mol

Q: # folding enthalpy lookup, item GGTTAACGAAAGTTGACC (((.(((....))).)))
Ans: -27.6 kcal/mol

###

Catalogue of sequences with associated folding enthalpy
- experiment notes: folding enthalpy; higher = less favourable; fluorescence melt of hairpins on a sequencing array, two-state fit
- experimental conditions: sodium 0.088 M
Only the number, expressed in kcal/mol, is required.

Study these solved cases before continuing.
GTGAATGGAAACGTTCAC (((((.(....).))))): -39.7
GGACGAGGAAACTCGCCC ((.((((....)))).)): -23.3
GGACGCGAAAGCGGCTCC ((((((....)))..))): -8.87
GCGAATCGAAAGATGCGC (((.(((....))).))): -42.4
GCCACCACGAAAGTGGGC (((..(((....)))))): -9.17

Q: Any idea what its folding enthalpy is? The sequence is GATCTTCCAGAAGATC ((((((....))))))
Ans: -33.7

Q: Please look up its folding enthalpy: GGATCTGGAAACAGACCC ((.((((....)))).))
Ans: -32.2

Q: For the sequence GAGATTGCGAAAGCACTC (((..(((....)))))) , what folding enthalpy is on record?
Ans: -11.3

Q: # lookup: folding enthalpy of GTAATCCCGAAAGGGTAC (((..(((....))))))
Ans: -11.1

From: the array DNA melting data of Ke et al. (doi:10.1101/2024.01.08.574731)
